Biological target: T1, huNABA-avi-his (hybrid protein N-A1-B3-A2: N and A1 domains of human BGP, B3 domain of human CEA, A2 domain … (human, biotinylated at the avi tag (in vivo, co-transfected biotin ligase)))
T1 construct: also called NABA-avi-his reagent; biotinylated NABA
T1 chain: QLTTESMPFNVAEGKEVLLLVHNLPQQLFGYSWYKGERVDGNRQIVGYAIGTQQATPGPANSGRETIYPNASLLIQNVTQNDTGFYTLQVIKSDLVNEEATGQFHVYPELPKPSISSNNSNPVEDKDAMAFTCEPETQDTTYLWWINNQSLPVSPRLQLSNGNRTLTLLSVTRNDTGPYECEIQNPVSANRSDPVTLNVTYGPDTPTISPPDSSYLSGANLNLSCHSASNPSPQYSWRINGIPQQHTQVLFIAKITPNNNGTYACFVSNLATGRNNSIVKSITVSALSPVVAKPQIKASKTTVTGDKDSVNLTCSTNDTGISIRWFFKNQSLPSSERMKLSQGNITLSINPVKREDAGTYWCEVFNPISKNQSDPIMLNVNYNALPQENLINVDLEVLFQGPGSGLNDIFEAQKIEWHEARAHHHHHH
Assay: Biacore on immobilized NABA-avi-his; Bivalent Affinity
property_name: kon (M⁻¹ s⁻¹)
Answers are plain numbers, in M⁻¹ s⁻¹.

The following binders have reported results that may help.
{"binder": "H4E9 x 3A1 (antibody, V domains shown, bivalent form) VH: QVQLVQSGSELKKPGASVKVSCKASGYTFTEFGMNWVRQAPGQGLEWMGWINTKTGEATYIEEFKGRFVFSLDTSVSTAYLQISSLKAEDTAVYYCARWDFYDYVEAMDYWGQGTTVTVSS VL: DIQMTQSPSSLSASVGDRVTITCKASANVGNNVAWYQQKPGKAPKLLIYLASNRSGGVPSRFSGSGSGTDFTLTISSLQPEDFATYYCHQYYTYPLFTFGQGTKLEIKR", "kon / M⁻¹ s⁻¹": 246000}
{"binder": "H4E9 x 2F1 (bivalent) (antibody, V domains shown, bivalent form of the clone) VH: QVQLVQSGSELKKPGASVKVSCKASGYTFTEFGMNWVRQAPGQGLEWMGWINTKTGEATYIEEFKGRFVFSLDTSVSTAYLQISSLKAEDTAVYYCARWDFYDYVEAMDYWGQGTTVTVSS VL: DIQMTQSPSSLSASVGDRVTITCKASAAVGTYVAWYQQKPGKAPKLLIYSASYRKRGVPSRFSGSGSGTDFTLTISSLQPEDFATYYCHQYYTYPLFTFGQGTKLEIKR", "kon / M⁻¹ s⁻¹": 423000}
{"binder": "H3 Full (5) 19 x 2F1 (bivalent) (antibody, V domains shown, bivalent form of the clone; copies: 2 + 2) VH: QVQLVQSGSELKKPGASVKVSCKASGYTFTEFGMSWVRQAPGQGLEWMGWINTKTGEATYVEEFKGRFVFSLDTSVSTAYLQISSLKAEDTAVYYCARWDAFEYVKALDYWGQGTTVTVSS VL: DIQMTQSPSSLSASVGDRVTITCKASAAVGTYVAWYQQKPGKAPKLLIYSASYRKRGVPSRFSGSGSGTDFTLTISSLQPEDFATYYCHQYYTYPLFTFGQGTKLEIK", "kon / M⁻¹ s⁻¹": "1.76e+06"}

Now turn to the next binder.
Lab book: kon of 1C8 x 3A1 (antibody, V domains shown, bivalent form) VH: QVQLVQSGSELKKPGASVKVSCKASGYTFTEFGMNWVRQAPGQGLEWMGWINTKTGEATYVEEFKGRFVFSLDTSVSTAYLQISSLKAEDTAVYYCARWDFYHYVEAMDYWGQGTTVTVSS VL: DIQMTQSPSSLSASVGDRVTITCKASANVGNNVAWYQQKPGKAPKLLIYLASNRSGGVPSRFSGSGSGTDFTLTISSLQPEDFATYYCHQYYTYPLFTFGQGTKLEIK noted as 289000
